# MEASUREMENT TARGET: Amyloid-beta precursor protein (Homo sapiens) (UniProt P05067)
# Sequence (P05067 whole entry): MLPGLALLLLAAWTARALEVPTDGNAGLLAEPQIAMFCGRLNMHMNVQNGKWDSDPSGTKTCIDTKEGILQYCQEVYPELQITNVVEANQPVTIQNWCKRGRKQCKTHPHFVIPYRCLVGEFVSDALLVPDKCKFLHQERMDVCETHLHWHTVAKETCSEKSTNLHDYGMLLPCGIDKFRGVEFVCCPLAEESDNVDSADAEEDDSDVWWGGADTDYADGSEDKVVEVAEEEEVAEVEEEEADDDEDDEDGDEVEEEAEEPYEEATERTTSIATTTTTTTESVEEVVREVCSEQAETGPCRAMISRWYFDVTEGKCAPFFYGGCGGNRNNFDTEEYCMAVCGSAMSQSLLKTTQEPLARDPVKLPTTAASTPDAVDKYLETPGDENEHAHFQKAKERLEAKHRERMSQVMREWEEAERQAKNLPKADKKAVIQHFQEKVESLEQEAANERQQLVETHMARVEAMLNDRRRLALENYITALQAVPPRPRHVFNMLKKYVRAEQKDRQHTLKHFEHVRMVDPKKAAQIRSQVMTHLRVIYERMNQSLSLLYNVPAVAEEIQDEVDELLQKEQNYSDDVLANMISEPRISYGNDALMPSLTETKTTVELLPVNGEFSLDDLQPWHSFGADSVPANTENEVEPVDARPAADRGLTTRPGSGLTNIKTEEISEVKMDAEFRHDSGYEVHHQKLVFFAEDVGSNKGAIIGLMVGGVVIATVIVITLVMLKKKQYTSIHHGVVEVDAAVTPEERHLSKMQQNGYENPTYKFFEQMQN
# PROTOCOL DETAILS: Inhibition of amyloid beta (1 to 42) (unknown origin) assessed as reduction in peptide aggregation at 10 uM measured after 24 hrs by thioflavin-T fluorescence assay relative to control
Square brackets hold non-standard residues; d marks the D form. Peptide text beside a SMILES is read from it. Bip = N[C@@H](Cc1ccc(-c2ccccc2)cc1)C(=O)O; Phe(4-Me) = Cc1ccc(C[C@H](N)C(=O)O)cc1; NMeF = CN[C@@H](Cc1ccccc1)C(=O)O; Ac5c = NC1(C(=O)O)CCCC1; βAla = NCCC(=O)O
VALUE KIND: inhibition (%)

>>> assay_result("CC[C@H](C)[C@H](NC(=O)[C@@H](NC(=O)[C@@H](N)C(C)C)C(C)C)C(=O)NCCC(=O)O (H-VVI[βAla]-OH)")
13
>>> assay_result("CC[C@H](C)[C@H](NC(=O)[C@@H](NC(=O)[C@H](Cc1ccccc1)NC)C(C)C)C(=O)N[C@@H](C)C(=O)O (H-[NMeF]VIA-OH)")
100
>>> assay_result("CC[C@H](C)[C@H](NC(=O)[C@@H](NC(=O)[C@@H](N)Cc1ccc(-c2ccccc2)cc1)C(C)C)C(=O)N[C@@H](C)C(=O)O (H-[Bip]VIA-OH)")
12.9

(I) CC[C@H](C)[C@H](NC(=O)[C@@H](NC(=O)[C@@H](N)Cc1ccc(C)cc1)C(C)C)C(=O)N[C@@H](C)C(=O)O (H-[Phe(4-Me)]VIA-OH)
(II) CC[C@H](C)[C@H](NC(=O)C1(NC(=O)[C@@H](N)C(C)C)CCCC1)C(=O)N[C@@H](C)C(=O)O (H-V[Ac5c]IA-OH)
// pick min by inhibition: I , II Write down the label attached to your selection.
I
(I: 26.8%, II: 100%)

----------
# MEASUREMENT TARGET: Amyloid-beta precursor protein (Homo sapiens)
# PROTOCOL DETAILS: Inhibition of amyloid beta (1 to 42) (unknown origin) assessed as reduction in peptide aggregation at 2 uM measured after 24 hrs by thioflavin-T fluorescence assay relative to control
Square brackets hold non-standard residues; d marks the D form. Peptide text beside a SMILES is read from it. ξ: configuration not given here. Oic(3aξ,7aξ) = O=C(O)[C@@H]1CC2CCCCC2N1; Gly(cPent) = N[C@H](C(=O)O)C1CCCC1; NMeI = CC[C@H](C)[C@H](NC)C(=O)O; NMeL = CN[C@@H](CC(C)C)C(=O)O; β3hP = O=C(O)C[C@@H]1CCCN1; Abu = CC[C@H](N)C(=O)O
VALUE KIND: inhibition (%)

Below are worked cases with known answers.
>>> assay_result("CC(C)[C@H](N)C(=O)N[C@H](C(=O)N[C@H](C(=O)N[C@@H](C)C(=O)O)C1CCCC1)C(C)C (H-VV[Gly(cPent)]A-OH)")
17.1
>>> assay_result("CC[C@H](C)[C@H](NC(=O)[C@H](Cc1ccccc1)NC(=O)[C@@H](N)Cc1ccccc1)C(=O)N[C@@H](C)C(=O)O (H-FFIA-OH)")
92.2
>>> assay_result("CC[C@H](C)[C@H](NC(=O)[C@@H](NC(=O)[C@@H](N)C(C)C)C(C)C)C(=O)N[C@@H](CC(N)=O)C(=O)O (H-VVIN-OH)")
38.6

(1) CC[C@H](C)[C@@H](C(=O)N[C@@H](C)C(=O)O)N(C)C(=O)[C@@H](NC(=O)[C@@H](N)C(C)C)C(C)C (H-VV[NMeI]A-OH)
(2) CC[C@H](NC(=O)[C@@H](NC(=O)[C@@H](NC(=O)[C@@H](N)C(C)C)C(C)C)[C@@H](C)CC)C(=O)O (H-VVI[Abu]-OH)
(3) CC[C@H](C)[C@H](NC(=O)[C@@H](NC(=O)[C@@H](N)C(C)C)C(C)C)C(=O)N[C@@H](CCC(N)=O)C(=O)O (H-VVIQ-OH)
Hey, can you sort those molecules up there by inhibition, smallest first? Reply with the item labels sorted in the order that was asked for.
2, 3, 1

(A) CC[C@H](C)[C@H](NC(=O)[C@@H]1CC2CCCCC2N1C(=O)[C@@H]1CC2CCCCC2N1)C(=O)N[C@@H](C)C(=O)O (stereo partly drawn) (H-[Oic(3aξ,7aξ)][Oic(3aξ,7aξ)]IA-OH)
(B) CC(C)C[C@@H](C(=O)N[C@@H](C)C(=O)O)N(C)C(=O)[C@@H](NC(=O)[C@@H](N)C(C)C)C(C)C (H-VV[NMeL]A-OH)
Which of the two items, A and B , has the greater recorded inhibition? Write down the label attached to your selection.
A
(A: 100%, B: 31.6%)

(1) CC[C@H](C)[C@H](NC(=O)C[C@@H]1CCCN1C(=O)[C@@H](N)C(C)C)C(=O)N[C@@H](C)C(=O)O (H-V[β3hP]IA-OH)
(2) CC[C@H](C)[C@H](NC(=O)[C@@H](NC(=O)C[C@H](N)c1ccccc1)C(C)C)C(=O)N[C@@H](C)C(=O)O
Which of the two items, 1 and 2 , has the greater recorded inhibition? Write down the label attached to your selection.
1
(1: 96.1%, 2: 50.1%)
